Assay: Cell viability test (MTT assay)
Format: cell-based
Details: human, hMSC (3A6) cells; day 3, hMSC (3A6); read-out: Survival rate
MEASUREMENT_NAME: viability at 72 h, 0.5 wt %
Provide the measurement as a number trailed by its unit.

Value lookup for viability at 72 h, 0.5 wt %; key = O=C(Cc1c(F)c(F)c(F)c(F)c1F)N[C@@H](Cc1ccccc1)C(=O)N[C@@H](Cc1ccccc1)C(=O)O
68.2%
